Target: T1, ExoI Glu150Ala variant (Escherichia coli, UniProt P04995 1-475)
T1 construct: also called E150A; Glu150 variant
T1 sequence: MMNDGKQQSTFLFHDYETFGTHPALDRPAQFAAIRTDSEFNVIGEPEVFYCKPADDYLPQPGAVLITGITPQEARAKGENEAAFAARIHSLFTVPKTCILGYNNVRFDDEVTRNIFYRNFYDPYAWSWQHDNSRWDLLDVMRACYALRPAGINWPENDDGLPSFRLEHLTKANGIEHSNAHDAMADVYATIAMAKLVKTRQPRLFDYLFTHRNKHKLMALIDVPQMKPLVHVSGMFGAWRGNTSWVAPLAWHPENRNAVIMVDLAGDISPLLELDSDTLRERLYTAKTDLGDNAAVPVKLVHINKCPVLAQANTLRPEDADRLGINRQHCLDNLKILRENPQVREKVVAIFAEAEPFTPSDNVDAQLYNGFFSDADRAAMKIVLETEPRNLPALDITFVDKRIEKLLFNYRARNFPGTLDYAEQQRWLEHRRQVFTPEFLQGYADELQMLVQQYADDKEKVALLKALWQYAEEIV
Assay: fluorescence anisotropy equilibrium binding (Kd,app), ExoI variant titrated into fluorescein-labeled peptide
Where no end group is shown, it is not given here. fluorescein = fluorescein moiety attached to the N-terminus of the peptide (N-terminal fluorescein label)
Quantity Name: Kd (nM)

{"Binder": "fluorescein-WMDFDDDIPF (also called F-SSB-Ct; F-WT) [fluorescein-labeled SSB C-terminal peptide (fluorescein-WMDFDDDIPF)]", "Reported Value": 72}
